Biological target: T1, human IL2Rα Fc fusion protein (human, UniProt P01589 22-213, limits assumed)
T1 construct: also called CD25; not shown: Fc part
T1 sequence (looked up): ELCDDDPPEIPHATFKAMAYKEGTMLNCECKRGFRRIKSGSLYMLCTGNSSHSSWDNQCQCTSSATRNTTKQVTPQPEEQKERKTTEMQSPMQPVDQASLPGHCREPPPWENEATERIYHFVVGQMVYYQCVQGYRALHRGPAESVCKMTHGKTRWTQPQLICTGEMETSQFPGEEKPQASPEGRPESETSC
Assay: SPR (Biacore T200), receptor captured on Protein A chip, IL2 at 100 nM and 20 nM
pKd: −log10 of the molar value.
parameter.measured: pKd

(I) EP577 (clone 2021EP16-E05), E. coli-produced (ligand) APASSSTKKTQLQLEHLLLDLQMILNGINNYKNPKLTRMLTFKFYMPKKATELKHLQCLEEELKPLEEVLNLAQSKNFHLKAIAFISDLKVRVLDLKGSETTFMCEYADETATIVEFLNRWITFSQSIISTLT
(II) EP575 (clone 2021EP16-D09), E. coli-produced (ligand) APASSSTKKTQLQLEHLLLDLQMILNGINNYKNPKLTRMLTFKFYMPKKATELKHLQCLEEELKPLEEVLNLAQSKNFHLRNKGILGDISNIVLALKGSETTFMCEYADETATIVEFLNRWITFSQSIISTLT
(III) EP569 (clone 2021EP22-E03), E. coli-produced (ligand) APASSSTKKTQLQLEHLLLDLQMILNGINNYKNPKLTRMLTFKFYMPKKATELKHLQCLEEELKPLEEVLNLAQSKNFHLRRKESINHMIVVFPVLKGSETTFMCEYADETATIVEFLNRWITFSQSIISTLT
(IV) EP578 (clone 2021EP16-H02), E. coli-produced (ligand) APASSSTKKTQLQLEHLLLDLQMILNGINNYKNPKLTRMLTFKFYMPKKATELKHLQCLEEELKPLEEVLNLAQSKNFHLTTRDVVMTMARIDLELKGSETTFMCEYADETATIVEFLNRWITFSQSIISTLT
IN: Arrange the above in rising order of pKd. Put the labels in the order asked and list them.
OUT: IV, I, II, III
